Where these numbers come from: patent US20070128217A1

- Test system: antibodies in sera from SARS patients (sera 1a, 1b, 2, 6, 37, 62, London, SARS-yellow, SARS-green)
- Assay type: binding, human
measured_property: Binding of serum 1b to looped/cyclic peptide (PEPSCAN-ELISA)
Form rule: numeric answer, no unit written next to it.

-- ask May I ask what Binding of serum 1b to looped/cyclic peptide (PEPSCAN-ELISA) has been recorded for TIPLQASLPFGWLVI ?
-- reply 0.4

-- ask Now the same for LALYKGFQFICNLLL
-- reply 0.3

-- ask Now the same for VAAGMEAQFLYLYAL
-- reply 0.4

-- ask Now the same for ATKIIALNKRWQLAL
-- reply 0.4

-- ask Now the same for IIMRCWLCWKCKSKN
-- reply 0.3

-- ask Now the same for ICNLLLLFVTIYSHL
-- reply 0.3

-- ask Now the same for CWLCWKCKSKNPLLY
-- reply 0.4

-- ask Now the same for CKSKNPLLYDANYFV
-- reply 0.6

-- ask Now the same for AVFQSATKIIALNKR
-- reply 0.4

-- ask Now the same for NLLLLFVTIYSHLLL
-- reply 0.4

-- ask Now the same for MEAQFLYLYALIYFL
-- reply 0.3

---

- Test system: antibodies in sera from SARS patients (sera 1a, 1b, 2, 6, 37, 62, London, SARS-yellow, SARS-green)
- Assay type: binding, human
measured_property: Binding of serum 1a to looped/cyclic peptides of protein M of SARS-CoV Urbani
Form rule: numeric answer, no unit written next to it.

-- ask May I ask what Binding of serum 1a to looped/cyclic peptides of protein M of SARS-CoV Urbani has been recorded for VATSRTLSYYKLGAS ?
-- reply 0.8

-- ask Now the same for AWIMLLQFAYSNRNR
-- reply 0.7

-- ask Now the same for SRTLSYYKLGASQRV
-- reply 0.9

-- ask Now the same for LWLLWPVTLACFVLA
-- reply 0.7

-- ask Now the same for YIIKLVFLWLLWPVT
-- reply 0.8

-- ask Now the same for WNLVIGFLFLAWIML
-- reply 0.6

-- ask Now the same for LVIGAVIIRGHLRMA
-- reply 0.8

-- ask Now the same for SELVIGAVIIRGHLR
-- reply 0.8

-- ask Now the same for AYNRYRIGNYKLNTD
-- reply 0.8

-- ask Now the same for DSGFAAYNRYRIGNY
-- reply 0.8

-- ask Now the same for CIVGLMWLSYFVASF
-- reply 0.5

-- ask Now the same for PETNILLNVPLRGTI
-- reply 0.6

-- ask Now the same for YRIGNYKLNTDHAGS
-- reply 0.8

-- ask Now the same for WSFNPETNILLNVPL
-- reply 0.8

-- ask Now the same for FLWLLWPVTLACFVL
-- reply 0.6

-- ask Now the same for VGTDSGFAAYNRYRI
-- reply 0.7

-- ask Now the same for IKLVFLWLLWPVTLA
-- reply 0.7

-- ask Now the same for QRVGTDSGFAAYNRY
-- reply 0.6

---

- Tested on: antibodies in sera from SARS patients (sera 1a, 1b, 2, 6, 37, 62, London, SARS-yellow, SARS-green)
- Assay type: binding, human
measured_property: Binding of serum 1b to linear peptides of protein X3 of SARS-CoV Urbani

-- ask May I ask what Binding of serum 1b to linear peptides of protein X3 of SARS-CoV Urbani has been recorded for TIAEILIIIMRTFRI ?
-- reply 0.3

-- ask Now the same for FRIAIWNLDVIISSI
-- reply 0.5

-- ask Now the same for DVIISSIVRQLFKPL
-- reply 0.4

-- ask Now the same for FHLVDFQVTIAEILI
-- reply 0.6
